B1: tRNA (parent)
chain: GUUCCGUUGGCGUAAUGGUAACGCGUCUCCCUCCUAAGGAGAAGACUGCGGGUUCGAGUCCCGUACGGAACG

variants of: B1; assay: yeast fitness, log relative to wild type (ln ratio); higher = fitter; tRNA-Arg(CCU), competitive growth, 37 C, 1 M NaCl
Quantity Name: yeast fitness (ln)
Output: the number by itself.

Enquiry: Look up yeast fitness (ln) for this variant: U2G G6A C66A A70G
Return: -0.0981

Enquiry: Look up yeast fitness (ln) for this variant: C27U A43C C66U A69G A70U C71U
Return: -0.37

Enquiry: Look up yeast fitness (ln) for this variant: U2G C27U A43C C46U C66A A69G A70U C71U
Return: -0.498

Enquiry: Look up yeast fitness (ln) for this variant: C27U A43C C46U C66A A69G A70U C71U
Return: -0.366

Enquiry: Look up yeast fitness (ln) for this variant: U2C C27U A43C C46U C66U A70G C71U
Return: -0.406

Enquiry: Look up yeast fitness (ln) for this variant: G6U C27U C46U A70G
Return: -0.15

Enquiry: Look up yeast fitness (ln) for this variant: U2C C27U C46U C66U
Return: -0.0297

Enquiry: Look up yeast fitness (ln) for this variant: G1A U2C C66U A69G A70G C71U
Return: -0.055

Enquiry: Look up yeast fitness (ln) for this variant: U2C G6U C27U
Return: -0.0654

Enquiry: Look up yeast fitness (ln) for this variant: U2C A43C C46U C66U A70G C71U
Return: -0.152

Enquiry: Look up yeast fitness (ln) for this variant: G1A U2G A69G
Return: -0.104

Enquiry: Look up yeast fitness (ln) for this variant: G1A U2C G6U C71U
Return: -0.159

Enquiry: Look up yeast fitness (ln) for this variant: U2G G6A C46U C66U C71U
Return: -0.082

Enquiry: Look up yeast fitness (ln) for this variant: U2G A43C C46U C66U A70U
Return: -0.101

Enquiry: Look up yeast fitness (ln) for this variant: G1A G6U A43C C66U A70U
Return: -0.212

Enquiry: Look up yeast fitness (ln) for this variant: G1A U2C G6U C27U C46U C66U C71U
Return: -0.196

Enquiry: Look up yeast fitness (ln) for this variant: G1A C27U A43C C46U C66A
Return: -0.103

Enquiry: Look up yeast fitness (ln) for this variant: U2C G6A C27U C46U C66U
Return: -0.136

Enquiry: Look up yeast fitness (ln) for this variant: U2C C27U A43C C46U C66A
Return: -0.0384

Enquiry: Look up yeast fitness (ln) for this variant: U2C G6A C27U C46U C66A A69G A70U C71U
Return: -0.384

Enquiry: Look up yeast fitness (ln) for this variant: U2C C66U A69G A70G
Return: -0.0264

Enquiry: Look up yeast fitness (ln) for this variant: G1A G6U C27U C66A A70G
Return: -0.228

Enquiry: Look up yeast fitness (ln) for this variant: U2C G6U C27U A43C C66U A69G A70G C71U
Return: -0.347

Enquiry: Look up yeast fitness (ln) for this variant: G1A U2C C46U C66A A70U
Return: -0.0262

Enquiry: Look up yeast fitness (ln) for this variant: G1A U2G G6A C66U A70U C71U
Return: -0.0116

Enquiry: Look up yeast fitness (ln) for this variant: C27U A43C C66A A70G
Return: -0.135

Enquiry: Look up yeast fitness (ln) for this variant: G1A U2G G6A C27U C66A A69G A70G C71U
Return: -0.353

Enquiry: Look up yeast fitness (ln) for this variant: G1A U2C C27U C46U C66U A70G
Return: -0.242

Enquiry: Look up yeast fitness (ln) for this variant: G6A C46U A70U C71U
Return: -0.15

Enquiry: Look up yeast fitness (ln) for this variant: G1A C27U A43C C46U C66U
Return: -0.199

Enquiry: Look up yeast fitness (ln) for this variant: U2C C27U A43C C66A A70G
Return: -0.0848

Enquiry: Look up yeast fitness (ln) for this variant: G1A U2G C27U A69G A70G
Return: -0.242

Enquiry: Look up yeast fitness (ln) for this variant: U2C G6A C27U C46U C66A A70U C71U
Return: -0.172

Enquiry: Look up yeast fitness (ln) for this variant: G1A U2C G6U C66U A70G C71U
Return: -0.0525

Enquiry: Look up yeast fitness (ln) for this variant: U2C G6A A69G C71U
Return: -0.176

Enquiry: Look up yeast fitness (ln) for this variant: G1A U2C G6U C27U A43C C46U A70G C71U
Return: -0.198

Enquiry: Look up yeast fitness (ln) for this variant: U2G G6U A43C C66U A70U
Return: -0.279

Enquiry: Look up yeast fitness (ln) for this variant: U2G G6U A43C A69G C71U
Return: -0.402

Enquiry: Look up yeast fitness (ln) for this variant: G1A U2G G6A C27U A43C C46U C66U C71U
Return: -0.29

Enquiry: Look up yeast fitness (ln) for this variant: G6U C46U A69G A70U C71U
Return: -0.301

Enquiry: Look up yeast fitness (ln) for this variant: G1A U2C G6A C27U C46U A70U C71U
Return: -0.0799

Enquiry: Look up yeast fitness (ln) for this variant: G1A G6A C27U C46U C66A A70G C71U
Return: -0.269

Enquiry: Look up yeast fitness (ln) for this variant: U2C G6U A43C C46U A69G A70U C71U
Return: -0.393

Enquiry: Look up yeast fitness (ln) for this variant: U2G A43C C46U A69G A70G C71U
Return: -0.12

Enquiry: Look up yeast fitness (ln) for this variant: G1A U2C G6U C46U C66U A70U
Return: -0.0663

Enquiry: Look up yeast fitness (ln) for this variant: U2C C27U A43C A70U C71U
Return: -0.172

Reference for the values: the RNAGym collection of RNA variant scans (doi:10.1038/s41586-018-0170-7)
